assay: HPLC-MS/MS quantification of 9 compounds in plasma of RSV-infected mice after Scutellaria baicalensis Georgi administration; type: in vivo, BALB/c mice; conditions: RSV-infected mice after Scutellaria baicalensis Georgi administration; double peak phenomenon
reported.endpoint: time of highest plasma concentration, second peak (h)

- molecule: "COc1c(OC2OC(C(=O)O)C(O)C(O)C2O)cc2oc(-c3ccccc3)cc(=O)c2c1O [Oroxylin A 7-O-beta-D-glucuronide]"
  endpoint.result: 6
- molecule: "COc1c(O)cc2oc(-c3ccccc3)cc(=O)c2c1O"
  endpoint.result: 6
- molecule: "O=C(O)[C@H]1O[C@@H](Oc2cc3oc(-c4ccccc4)cc(=O)c3c(O)c2O)[C@H](O)[C@@H](O)[C@@H]1O"
  endpoint.result: 6
- molecule: "O=c1cc(-c2ccccc2)oc2c(O)c(O)cc(O)c12"
  endpoint.result: 6
- molecule: "COc1c(O)cc(O)c2c(=O)cc(-c3ccccc3)oc12"
  endpoint.result: 6
- molecule: "COc1c(O[C@@H]2O[C@H](C(=O)O)[C@@H](O)[C@H](O)[C@H]2O)cc(O)c2c(=O)cc(-c3ccccc3)oc12 [Wogonoside]"
  endpoint.result: 6
- molecule: "O=c1cc(-c2ccccc2)oc2cc(O)c(O)c(O)c12"
  endpoint.result: 6
